Sourced from PubChem BioAssay AID1159580

test: chemical genetic growth profiling, strain panel (AID 1159580);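 also: tested at 20 µM; growth read once vehicle control cultures reached saturation at 30 °C; lower values mean less growth of the strain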; conditions: S. cerevisiae deletion strains, growth OD, locus YJL129C, strain trk1
About 2,000 (36%) of roughly 5,500 compounds were called active. Roughly 18% stayed inconclusive and do not appear here. Rule as the data show it: active = normalized growth mostly below about 0.91 (no sharp cut-off); inconclusive = no clear call, values can overlap the other calls; inactive = mostly above about 0.92. This is one part of the list.
Possible outcomes: active, inactive

Compound	Qualitative Label
C=CCSCC=C	inactive
C[C@H]1O[C@H](O[C@H]2[C@H](O)[C@@H](O)[C@@H](O[C@H]3[C@H](O)[C@@H](O)C(O)O[C@@H]3CO)O[C@@H]2CO)[C@H](O)[C@@H](O)[C@@H]1N[C@H]1C=C(CO)[C@@H](O)[C@H](O)[C@H]1O (stereo partly specified)	inactive
CC[C@@]1(O)C(=O)OCc2c1cc1n(c2=O)Cc2cc3ccccc3nc2-1	active
CC[C@@]1(O)C(=O)OCc2c1cc1n(c2=O)Cc2cc3cc(O)ccc3nc2-1	inactive
COc1cccc2c1CCC1=CC(=O)CC[C@@]12C	inactive
CC1(C)Oc2ccc3ccc(=O)oc3c2CC1O (stereo unspecified)	inactive
COC(=O)CC1C(C)(C)C(OC(C)=O)[C@@H]2[C@@H](OC(C)=O)[C@]34O[C@@]2(O)[C@]1(C)C3CC[C@]1(C)C4=CC(=O)O[C@H]1c1ccoc1 (stereo partly specified)	inactive
CC1=C2C(O)C(=O)OC3CC4C(C)(C)C(=O)C=C[C@]4(C)C(CC1)[C@]23C (stereo partly specified)	inactive
C=CCSSSCC=C	inactive
CCc1ccc2c(O)c3c(cc2c1C(=O)OC)C(=O)c1c(O)ccc(O)c1C3=O	inactive
COC(=O)NC(=S)Nc1ccccc1NC(=S)NC(=O)OC	inactive
